- Target or system: KRas wild type (Homo sapiens (Human))
- Assay summary: Ras GTP binding domain inhibition assay (labeled GTP)
- Condition set: 20 μM compound; KRas wild type; read-out: % Inhibition at 20 μM of K-Ras mutant and wild-type protein, KRas wild type
Entries and their inhibition at 20 µM values follow.
Measured parameter: inhibition at 20 µM

Cn1ccnc1-c1nc(O)c2scc(-c3ccccc3Cl)c2n1 [drawing 3615]: 25 to 50%
COCCNc1nc(-c2cn(C)cn2)nc2sc(-c3ccncc3)c(-c3ccccc3)c12 [drawing 3530]: 51 to 75%
CN(C)CCOc1cccc(-c2csc3c(O)nc(-c4ccccn4)nc23)c1 [drawing 3492]: 51 to 75%
Cn1ccnc1-c1nc(O)c2sc(-c3ccccc3)c(-c3ccccc3)c2n1 [drawing 3588]: 1 to 25%
COCCNc1nc(-c2ccccn2)nc2sc(-c3ccccc3)c(-c3ccccn3)c12 [drawing 3620]: 0%
COCCNc1nc(-c2nccn2C)nc2sc(-c3cccc(OC)c3)c(-c3ccccc3)c12 [drawing 3586]: 25 to 50%
Cn1ccnc1-c1nc(O)c2scc(-c3ccc(F)cc3F)c2n1 [drawing 3616]: 1 to 25%
COc1ccc(-c2csc3c(O)nc(-c4nccn4C)nc23)cn1 [drawing 3613]: 25 to 50%
Oc1nc(-c2ccncn2)nc2c(-c3cccc(C(F)(F)F)c3)csc12 [drawing 3607]: 25 to 50%
Cc1sc2c(O)nc(-c3ccccn3)nc2c1C(=O)N1CCN(Cc2cccc(O)c2)CC1 [drawing 3510]: 1 to 25%
CC(O)CNc1nc(-c2nccn2C)nc2sc(-c3ccccc3)c(-c3ccccc3)c12 (centres unmarked) [drawing 3569]: 1 to 25%
COCCNc1nc(-c2nccn2C)nc2sc(C3CCOCC3)c(-c3ccccc3)c12 [drawing 3590]: 51 to 75%
CCN(CC)CCOc1nc(-c2nccn2C)nc2sc(-c3ccccc3)c(-c3ccccc3)c12 [drawing 3573]: 51 to 75%
COCCNc1nc(-c2nccn2C)nc2sc(-c3ccccc3)c(-c3ccccn3)c12 [drawing 3622]: 51 to 75%
Oc1nc(-c2ccccn2)nc(Oc2cccc(C(F)(F)F)c2)c1O [drawing 3558]: 1 to 25%
COCCNc1nc(-c2nccn2C)nc2sc(-c3ccccc3Cl)c(-c3ccccc3)c12 [drawing 3581]: 1 to 25%
Cc1sc2c(O)nc(-c3ccccn3)nc2c1-c1ccncc1 [drawing 3497]: 1 to 25%
COc1cnc(-c2cnc[nH]2)nc1O [drawing 3516]: 51 to 75%
COCCN(C)c1nc(-c2nccn2C)nc2sc(-c3ccccc3)c(-c3ccccc3)c12 [drawing 3566]: 51 to 75%
Cn1ccnc1-c1nc(O)c2scc(-c3ccc(C(C)(C)C)cc3)c2n1 [drawing 3619]: 1 to 25%
Cc1sc2c(O)nc(-c3nccn3C)nc2c1-c1ccc(OC(C)C)c(F)c1 [drawing 3610]: 25 to 50%
COc1nc(-c2cn(C)cn2)nc2sc(-c3ccncc3)c(-c3ccccc3)c12 [drawing 3531]: 1 to 25%
Oc1nc(-c2ncccn2)nc2c(-c3cccc(C(F)(F)F)c3)csc12 [drawing 3608]: 51 to 75%
COC1CCN(c2nc(-c3nccn3C)nc3sc(-c4ccccc4)c(-c4ccccc4)c23)C1 (centres unmarked) [drawing 3571]: 25 to 50%
Cn1ccnc1-c1nc(O)c2sc(-c3ccccc3)c(-c3ccccc3Cl)c2n1 [drawing 3595]: 25 to 50%
COCCNc1nc(-c2ccccn2)nc2c1c(-c1ccccc1)nn2-c1ccccn1 [drawing 3538]: 51 to 75%
CC(CO)Nc1nc(-c2nccn2C)nc2sc(-c3ccccc3)c(-c3ccccc3)c12 (centres unmarked) [drawing 3578]: 0%
COc1ccc(-c2c(-c3ccccc3)sc3c(O)nc(-c4nccn4C)nc23)cn1 [drawing 3593]: 1 to 25%
Cc1sc2c(O)nc(-c3ccccn3)nc2c1-c1cccnc1 [drawing 3468]: 25 to 50%
Cn1ccnc1-c1nc(O)c2scc(-c3cccc(C(F)(F)F)c3)c2n1 [drawing 3598]: 25 to 50%
COc1nc(-c2ccccn2)nc2c(C3CCCC3)csc12 [drawing 3470]: 25 to 50%
CCC(C)c1csc2c(OC)nc(-c3ccccn3)nc12 (centres unmarked) [drawing 3471]: 25 to 50%
Cc1nn(C(C)C)cc1-c1csc2c(O)nc(-c3ccccn3)nc12 [drawing 3506]: 25 to 50%
Cc1sc2c(O)nc(-c3ccccn3)nc2c1C(=O)N1CCN(c2ccccc2)CC1C (centres unmarked) [drawing 3509]: 25 to 50%
Cn1ccnc1-c1nc(O)c2scc(-c3cccc(OC(F)(F)F)c3)c2n1 [drawing 3603]: 25 to 50%

----------
Entries and their inhibition at 20 µM values follow.
- Target or system: KRas G12C/Q61H double mutant (Homo sapiens (Human), UniProt P01116, G12C/Q61H)
- Sequence (P01116-2 other isoform, or with tags, fused parts or gaps G12C/Q61H): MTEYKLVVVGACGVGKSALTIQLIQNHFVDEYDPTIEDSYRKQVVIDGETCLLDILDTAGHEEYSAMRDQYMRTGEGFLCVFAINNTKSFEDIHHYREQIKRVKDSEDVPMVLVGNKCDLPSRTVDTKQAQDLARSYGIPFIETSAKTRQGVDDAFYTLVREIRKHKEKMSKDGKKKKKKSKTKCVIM
- Assay summary: Ras GTP binding domain inhibition assay (labeled GTP)
- Condition set: 20 μM compound; KRas G12C/Q61H double mutant; read-out: % Inhibition at 20 μM of K-Ras mutant and wild-type protein, KRas G12C Q61H
Measured parameter: inhibition at 20 µM

COc1ccc(-c2cc3nc(-c4ccccn4)nc(O)c3s2)cc1 [drawing 3563]: 1 to 25%
COc1ccc(COC[C@H]2O[C@@H](c3csc4c(=O)[nH]c(-c5ccccn5)nc34)[C@H](O)[C@@H]2O)cc1 [drawing 3533]: 51 to 75%
COc1c(O)nc(-c2ccccn2)nc1Oc1cccc(C(F)(F)F)c1 [drawing 3557]: 76 to 100%
CC(C)Cc1csc2c(O)nc(-c3ccccn3)nc12 [drawing 3494]: 51 to 75%
Cc1sc2c(O)nc(-c3ccccn3)nc2c1Br [drawing 3522]: 25 to 50%

----------
- Target or system: KRas wild type (Homo sapiens (Human), UniProt P01116)
- Sequence (P01116-2 other isoform, or with tags, fused parts or gaps): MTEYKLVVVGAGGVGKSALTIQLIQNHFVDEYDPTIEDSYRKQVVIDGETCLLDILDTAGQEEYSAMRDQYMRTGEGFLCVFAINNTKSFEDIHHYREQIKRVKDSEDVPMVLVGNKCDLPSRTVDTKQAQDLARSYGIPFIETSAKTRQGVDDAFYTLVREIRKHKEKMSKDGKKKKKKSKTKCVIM
- Assay summary: Ras GTP binding domain inhibition assay (labeled GTP)
- Condition set: 20 μM compound; read-out: % Inhibition at 20 μM KRas wild type
Entries and their inhibition at 20 µM values follow.
Measured parameter: inhibition at 20 µM

O=C(c1csc2c(O)nc(-c3ccccn3)nc12)N1CCN(c2ccccc2)CC1 [drawing 2680]: 51 to 75%
Oc1nc(-c2ccccn2)nc2c(-c3ccccc3Cl)csc12 [drawing 2695]: 1 to 25%
O=C(CCc1nn[nH]n1)Nc1nc(-c2ccccn2)nc2sccc12 [drawing 2890]: 51 to 75%
Cc1cnccc1-c1csc2c(O)nc(-c3ccccn3)nc12 [drawing 2888]: 76 to 100%
O=C(CCn1ccnc1)Nc1nc(-c2ccccn2)nc2sccc12 [drawing 2889]: 51 to 75%

----------
- Target or system: KRas G12D/Q61H double mutant (Homo sapiens (Human), UniProt P01116, G12D/Q61H)
- Sequence (P01116-2 other isoform, or with tags, fused parts or gaps G12D/Q61H): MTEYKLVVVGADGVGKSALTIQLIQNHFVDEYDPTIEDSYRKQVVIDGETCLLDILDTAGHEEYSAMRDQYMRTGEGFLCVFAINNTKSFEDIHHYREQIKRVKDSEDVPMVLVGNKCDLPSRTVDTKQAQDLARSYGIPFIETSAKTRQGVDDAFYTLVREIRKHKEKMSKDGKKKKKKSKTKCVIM
- Assay summary: Ras GTP binding domain inhibition assay (labeled GTP)
- Condition set: 20 μM; read-out: KRas G12D Q61H % Inh.
Entries and their inhibition at 20 µM values follow.
Measured parameter: inhibition at 20 µM

Cc1nc(-c2ccccn2)nc(O)c1CCC(=O)NCC1COc2ccccc2O1 (stereo not shown) [drawing 2599]: 25 to 50%
COc1ccc(COCC(=O)N2CCCc3c(O)nc(-c4ccccn4)nc32)cc1 [drawing 2639]: 76 to 100%
Cc1cccc(OCC(=O)Nc2nnc(-c3ccccn3)[nH]2)c1 [drawing 2555]: 51 to 75%
CNC(=O)c1sc2[nH]c(-c3ccccn3)nc(=O)c2c1C [drawing 2584]: 25 to 50%
O=C(CCn1ccc2ccccc21)Nc1nnc(-c2ccccn2)[nH]1 [drawing 2462]: 51 to 75%
NC(=O)c1ccc(OCC(=O)Nc2nnc(-c3ccccn3)[nH]2)cc1 [drawing 2538]: 51 to 75%
CS(=O)(=O)N1CCCc2cc(C(=O)N3CCCc4c(O)nc(-c5ccccn5)nc43)ccc21 [drawing 2645]: 25 to 50%
CC(C)(C)c1nc(C(=O)Nc2nnc(-c3ccccn3)[nH]2)cs1 [drawing 2543]: 51 to 75%
COc1ccc(CCC(=O)Nc2nnc(-c3ccccn3)[nH]2)cc1 [drawing 2469]: 51 to 75%
O=C(c1ccc2c(c1)CCO2)N1CCCc2c(O)nc(-c3ccccn3)nc21: 1 to 25%
O=C(Nc1nnc(-c2ccccn2)[nH]1)C1CC(=O)N(CCc2ccccc2)C1 (stereo not shown) [drawing 2494]: 51 to 75%
O=C(Nc1nnc(-c2ccccn2)[nH]1)C1CCCN(c2cnccn2)C1 (stereo not shown) [drawing 2527]: 51 to 75%
COc1cccc(COCC(=O)Nc2nnc(-c3ccccn3)[nH]2)c1 [drawing 2534]: 51 to 75%
CCN(CC)C(=O)c1sc2[nH]c(-c3ccccn3)nc(=O)c2c1C [drawing 2589]: 51 to 75%
O=C(Cc1ccc(F)cc1)Nc1nnc(-c2ccccn2)[nH]1 [drawing 2515]: 51 to 75%
CCC(C)(C)c1ccc(OCCCC(=O)NC(C(=O)OC)C(C)C)c(C(C)(C)CC)c1 (stereo not shown) [drawing 2619]: 25 to 50%
CC(C1CC1)N(CC(F)(F)F)C(=O)Cc1ccc(-c2ccccc2)cc1 (stereo not shown) [drawing 2630]: 51 to 75%
O=C(Nc1nnc(-c2ccccn2)[nH]1)c1csc(-c2ccoc2)n1: 76 to 100%
O=C(Nc1nc(-c2ccccn2)cs1)c1ccncc1 [drawing 2578]: 51 to 75%
